Entry source: the Deep4Chem optical property database

Collected log10(fluorescence lifetime) values appear next to each entry.
- experimental details: solvent given as SMILES
- applied conditions: in CC(C)O
Heads up: the numbers are on a log10 scale; they represent fluorescence lifetime in ns.

Example cases with answers are listed next.
| compound | log10(fluorescence lifetime) |
| --- | --- |
| NS(=O)(=O)c1ccc(N2N=C(c3ccc(O)cc3)CC2c2ccc(F)cc2)cc1 (stereo unspecified) | 0.30 |
| N#Cc1coc2ccccc2c1=O | 0.27 |
| COc1ccc(-c2cc(-c3ccc(C)cc3)nc3c(C#N)c(N4CCCC4)nc(N)c23)cc1 | 1.07 |

Prompt: In one line, give reported log10(fluorescence lifetime) of the entry COC(=O)C(Cc1ccc2oc(-c3ccc(N(C)c4ccccc4)cc3)nc2c1)NC(=O)OC(C)(C)C (stereo unspecified) .
Completion: 0.64

Prompt: In one line, give reported log10(fluorescence lifetime) of the entry Nc1cc(N)cc(-c2nc3ccccc3s2)c1 .
Completion: 0.81

Prompt: In one line, give reported log10(fluorescence lifetime) of the entry CN(C)c1ccc(/C=C2\CC/C(=C\c3ccc(C#N)cc3)C2=O)cc1 .
Completion: -0.68

---

- experimental details: solvent given as SMILES
- applied conditions: in O=P(c1ccccc1)(c1ccccc1)c1ccccc1Oc1ccccc1P(=O)(c1ccccc1)c1ccccc1
readout kind: fluorescence lifetime (ns)
Write the value in ns as a bare number.

Example cases with answers are listed next.
| smiles entry | unit annotation | fluorescence lifetime |
| --- | --- | --- |
| CC1(C)c2ccccc2N(c2ccccc2)c2ccc(-c3ccc(C(=O)c4ccc(-c5ccc6c(c5)C(C)(C)c5ccccc5N6c5ccccc5)cc4)cc3)cc21 | ns | 1.87 |
| CC1(C)c2ccccc2N(c2ccccc2)c2ccc(S(=O)(=O)c3ccc4c(c3)C(C)(C)c3ccccc3N4c3ccccc3)cc21 | ns | 2.06 |
| c1ccc(-c2nc(-c3ccccc3)nc(-c3cc(-n4c5ccccc5c5ncccc54)c(-n4c5ccccc5c5ccccc54)c(-n4c5ccccc5c5ncccc54)c3)n2)cc1 | ns | 6 |
| c1ccc(-c2nc(-c3ccccc3)nc(-c3ccc(N4c5ccccc5C5(c6ccccc6-c6ccccc65)c5ccccc54)cc3)n2)cc1 | ns | 33 |
| c1ccc2c(c1)Sc1ccc(-n3c4ccccc4c4ccccc43)cc1S2 | ns | 3.5 |
| c1ccc(-c2cc(-c3ccc(N4c5ccccc5C(c5ccccc5)(c5ccccc5)c5ccccc54)cc3)nc(-c3ccccc3)n2)cc1 | ns | 8.02 |

Pending compound:
Prompt: In one line, give reported fluorescence lifetime of the entry F[B-]1(F)Oc2ccccc2-c2cc(-n3c4ccccc4c4ccccc43)cc[n+]21 .
Completion: 6.7

---

- experimental details: solvent given as SMILES
- applied conditions: in ClCCl
Collected fluorescence lifetime values appear next to each entry.
Write the value in ns as a bare number.

Example cases with answers are listed next.
| smiles entry | unit annotation | result value |
| --- | --- | --- |
| COC(=O)c1cc(=O)n(C)c2cc(-c3ccc(N4CCN(C)CC4)cc3)sc12 | ns | 1.5 |
| CCCCCCCC(=O)Oc1ccc2c3cccc4c(OC(=O)CCCCCCC)ccc(c5cccc1c52)c43 | ns | 4.34 |
| CCN(CC)c1ccc2c(-c3ccccc3C(=O)O)c3c([o+]c2c1)/C(=C/C=C/c1ccc(N(C)C)cc1)CCC3 | ns | 1.03 |
| COC(=O)c1cc(=O)n(C)c2cc(-c3cc(OC)c(OC)c(OC)c3)sc12 | ns | 1.36 |

Pending compound:
Prompt: In one line, give reported fluorescence lifetime of the entry COc1ccc2c(c1)CCC1=C(C#Cc3ccc(Cl)cc3)O[B-](F)(F)[O+]=C12 .
Completion: 2.53

---

- experimental details: solvent given as SMILES
- applied conditions: in ClCCl
readout kind: fluorescence lifetime (ns)
Write the value in ns as a bare number.

Example cases with answers are listed next.
| smiles entry | unit annotation | fluorescence lifetime |
| --- | --- | --- |
| CCOc1cc2c(cc1/C=C/C(=C(C#N)C#N)c1ccccc1)c1ccccc1n2CC | ns | 5.13 |
| CCCCCCCCCCCCOc1ccc(C#Cc2ccc(C#Cc3ccc(OCCCCCCCCCCCC)c(OCCCCCCCCCCCC)c3)c3nc4c5ccccc5c5ccccc5c4nc23)cc1OCCCCCCCCCCCC | ns | 8.62 |
| COc1c2ccccc2c(OC)c2c1c1cc(C)ccc1n2C | ns | 27.6 |
| CC1=C2C=CC=[N+]2[B-](F)(F)n2cccc21 | ns | 6.16 |

Prompt: In one line, give reported fluorescence lifetime of the entry Oc1ccc(Br)cc1-c1nc2c(c3c1-c1ccccc1CC3)-c1ccccc1CC2 .
Completion: 1.94

Prompt: In one line, give reported fluorescence lifetime of the entry O=S1(=O)c2ccccc2-c2cc(-c3c4ccccc4cc4ccccc34)ccc21 .
Completion: 3.4

Prompt: In one line, give reported fluorescence lifetime of the entry CCCCCCCCCCCn1cccc1C1=[N+]2C(=Cc3c(C)cc(C)n3[B-]2(F)F)c2ccccc21 .
Completion: 8.89

Prompt: In one line, give reported fluorescence lifetime of the entry O=S(=O)(/N=c1\oc2cccc3c4c(-c5ccccc5)oc5cccc(c(c1-c1ccccc1)c23)c54)C(F)(F)F .
Completion: 6.2

Prompt: In one line, give reported fluorescence lifetime of the entry CCC(CC)COC1=CC2=C3c4cc(OCC(CC)CC)c(-c5cccs5)n4[B-](F)(F)[n+]4c3n(c3cc(C(C)(C)C)ccc34)[B-](F)(F)[N+]2=C1c1cccs1 .
Completion: 0.7

---

- experimental details: solvent given as SMILES
- applied conditions: in CCOCC
Criterion: fluorescence lifetime strictly under 0.8 ns. Met: Met. Not met: Not met.

// below: answered compounds
| compound | answer label |
| --- | --- |
| CC(C)(C)c1ccc2c(c1)c1cc3c4cc(C(C)(C)C)ccc4c4c5c6ccc(C(C)(C)C)cc6c6cc7c8cc(C(C)(C)C)ccc8c8c2c1c(c34)c(c78)c65 | Met |
| CN(C)c1ccc(/C=C/C=C2\CC/C(=C\c3ccc(N(C)C)cc3)C2=O)cc1 | Met |
| COc1ccc(C2=C3C(C)=CC(C)=[N+]3[B-](F)(F)n3c(/C=C/c4ccc(N(C)C)cc4)cc(C)c32)cc1 | Not met |

Prompt: Here's an entry: CN(C)c1ccc(/C=C/C=C2\CC/C(=C\C=C\c3ccc(N(C)C)cc3)C2=O)cc1 . Is its fluorescence lifetime below 0.8 ns?
Completion: Met

Prompt: Here's an entry: COC(=O)C(Cc1ccc2oc(-c3ccc(N(C)c4ccccc4)cc3)nc2c1)NC(=O)OC(C)(C)C (stereo not drawn) . Is its fluorescence lifetime below 0.8 ns?
Completion: Not met

Prompt: Here's an entry: COc1ccc(/C=C/C2=CC(/C=C/c3ccc(OC)cc3)=[O+][B-](F)(F)O2)cc1 . Is its fluorescence lifetime below 0.8 ns?
Completion: Met

Prompt: Here's an entry: COC(=O)C(Cc1ccc2oc(-c3ccc(N(C)C)cc3)nc2c1)NC(=O)OC(C)(C)C (stereo not drawn) . Is its fluorescence lifetime below 0.8 ns?
Completion: Not met

Prompt: Here's an entry: Nc1ccc2c3c(cccc13)C(=O)c1ccccc1-2 . Is its fluorescence lifetime below 0.8 ns?
Completion: Not met

---

Collected fluorescence lifetime values appear next to each entry.
- experimental details: solvent given as SMILES
- applied conditions: in Cc1ccccc1
Write the value in ns as a bare number.

Example cases with answers are listed next.
| smiles entry | fluorescence lifetime / ns |
| --- | --- |
| COc1ccc2c3c(cccc13)C(=O)c1ccccc1-2 | 1.4 |
| CC1=[N+]2C(=C(c3ccc(N(C)C)cc3)c3ccc(C)n3[B-]2(F)F)C=C1 | 3.24 |
| CC1=C(c2cccs2)C(C)=[N+]2C1=C(c1ccc(O)cc1)c1c(C)c(-c3cccs3)c(C)n1[B-]2(F)F | 3.8 |
| CCCCCCOc1ccc(C#Cc2ccc(C#CC#Cc3ccc(C#Cc4ccc(OCCCCCC)c(OCCCCCC)c4)c4nsnc34)c3nsnc23)cc1OCCCCCC | 1.9 |
| N#Cc1c(-n2c3ccccc3c3cc(Br)ccc32)c(C#N)c(-n2c3ccccc3c3cc(Br)ccc32)c(-n2c3ccccc3c3cc(Br)ccc32)c1-n1c2ccccc2c2cc(Br)ccc21 | 0.4 |
| COc1ccc(C2=C(c3ccc(OC)cc3)C(c3ccccc3)=[N+]3C2=Nc2c(-c4ccc(OC)cc4)c(-c4ccc(OC)cc4)c(-c4ccccc4)n2[B-]3(F)F)cc1 | 0.08 |

Prompt: In one line, give reported fluorescence lifetime of the entry COc1cc(OC)cc(-c2ccc(-c3ccc(C#N)s3)s2)c1 .
Completion: 0.22

Prompt: In one line, give reported fluorescence lifetime of the entry c1ccc(-c2c3c(c(-c4ccccc4)c4cc5ccccc5cc24)Cc2c(c(-c4ccccc4)c4cc5ccccc5cc4c2-c2ccccc2)C3)cc1 .
Completion: 3.24
